All figures here come from PubChem BioAssay.

# experiment-notes: osmotic lysis modulators in infected erythrocytes, primary screen, PSAC antagonist project, cell-based, P. falciparum Indochina, OD700, 3 h (AID 1156)
# conditions-used: higher = more signal, called active from +8 up or from −8 down
Each entry gets False if its z-score stays under 2, and True if its z-score is 2 or above.

Would you say Cc1ccc(S[C@]2(C(=O)NCc3ccccc3)CC(=O)N(Cc3ccccc3Cl)[C@@H]2c2ccc(CO)cc2I)cc1 shows z-score at minimum 2?
False

Next compound up: CCCCCCc1nc(CCCc2cc3c(c(CCCCCC)n2)[Si](C(C)C)(C(C)C)OC3)cc2c1[Si](C(C)C)(C(C)C)OC2
False

Next compound up: CCCCC=C[C@@H](NC(=O)c1ccc(C(=O)OC)cc1)c1ccccc1
False

Next compound up: [N-]=[N+]=NCc1ccccc1C[C@]1(C(=O)O)N=C(c2ccc(OCCCO)cc2)O[C@H]1c1ccccc1CN=[N+]=[N-]
False

Next compound up: CCCN1C(=O)[C@]2(COC(c3ccc(OCCCO)cc3)=N2)Cc2ccccc21
True

Next compound up: COCC(=C=CC[C@@H](O)c1ccc(CO)o1)CCO
False

Next compound up: CCC(CC)C(O)C1C=CC2C(=O)N(c3ccccc3)C(=O)C2N1Nc1ccc(C#N)cc1 (stereo not drawn)
True

Next compound up: Cc1ccc(S[C@]2(C(=O)NCCN3CCOCC3)CC(=O)N(Cc3cc(C(F)(F)F)cc(C(F)(F)F)c3)[C@@H]2c2ccc(CO)cc2I)cc1
False

###

# test-system: NADPH oxidase 5 (Homo sapiens)
# experiment-notes: NOX5-dependent H2O2 signal modulators, primary screen, NOX inhibitor project, cell-based, HEK293-NOX5, Amplex Red fluorescence (AID 1161)
# conditions-used: HEK293-NOX5, ionomycin, 45 min, higher = more signal
measured-attribute: z-score
Hey, just send me the number, nothing else.

Which z-score reading was recorded for the molecule C=CC[C@]1(C(=O)N2CCOCC2)N=C(c2ccc(OCCCO)cc2)O[C@H]1c1ccccc1 ?
-0.921

Next molecule up: CC(C)CNC(=O)[C@@H]1c2ccccc2C(=O)N(Cc2cc(C(F)(F)F)cc(C(F)(F)F)c2)[C@H]1c1ccc(CO)cc1
0.86

Next molecule up: COCCCNC(=O)[C@@]1(CCC(=O)OC(C)(C)C)N=C(c2ccc(OCCCO)cc2)O[C@H]1c1ccccc1CN=[N+]=[N-]
2.48

Next molecule up: C=CCC(OC(C)=O)[C@@H]1[C@@H](N(Cc2cccc3ccccc23)C(=O)c2cccc3ccccc23)c2cc(OCCCO)ccc2N1C(=O)c1ccc2ccccc2n1 (stereo partly drawn)
-2.42

Next molecule up: COCCOC(=O)N1C(=O)[C@@]2(c3cc(C#CCC(C(=O)OC)C(=O)OC)ccc31)[C@H](c1ccc(O)cc1)N1[C@H](c3ccccc3)[C@H](c3ccccc3)OC(=O)[C@H]1[C@@H]2C(N)=O
1.14

Next molecule up: O=C1OCCC=C[C@H]2OC34C=CCN(Cc5ccccc5)C(=O)[C@H]3N(CCCCCCO)C(=O)[C@@H]4C12 (stereo partly drawn)
1.97

Next molecule up: COC(=O)[C@@]1(Cc2ccc(OC)cc2)[C@H]2c3cc(C(=O)N4CCCC4)n(CCc4c[nH]c5cc(F)ccc45)c3C[C@H]2CN1C(=O)c1ccccc1
-0.293

Next molecule up: COCCOC(=O)N1C(=O)[C@@]2(c3ccccc31)[C@H](C(=O)Nc1nc3ccccc3s1)[C@H]1C(=O)O[C@H](c3ccccc3)[C@H](c3ccccc3)N1[C@@H]2c1ccc(OCCO)cc1
2.22

Next molecule up: CCOC(=O)C[C@H]1[C@H](OC(=O)c2ccc(-c3ccccc3)cc2)[C@@H](NC(=O)c2ccc(-c3ccccc3)cc2)c2cc(OCCCO)ccc2N1C(=O)Cc1ccc(OC)cc1
-0.0798

Next molecule up: CC=CC(O)C1C=CC2C(=O)N(c3ccccc3)C(=O)C2N1Nc1ccc(C(C)C)cc1 (stereo not drawn)
-4.2

Next molecule up: COCCOC(=O)N1C(=O)[C@@]2(c3cc(C#CCC(C(=O)OC)C(=O)OC)ccc31)[C@H](c1ccccc1OCCO)N1[C@H](c3ccccc3)[C@H](c3ccccc3)OC(=O)[C@H]1[C@@H]2C(N)=O
-1.85

Next molecule up: COc1ccc(C#Cc2ccc3c(c2)[C@]2(C(=O)N3)[C@H](C(=O)NC[C@H](O)c3ccccc3)[C@H]3C(=O)O[C@H](c4ccccc4)[C@H](c4ccccc4)N3[C@@H]2c2ccc(OCCO)cc2)cc1
0.636

Next molecule up: CC(C)c1ccc(NN2C(C(O)c3cccc(O)c3)C=CC3C(=O)N(c4ccccc4)C(=O)C32)cc1 (stereo not drawn)
-4.13
